Attribution: patent US4873081A

test: in vivo; design: species or system male Wistar rats; conditions: rat, topical or ocular, AUC (0-36 hours)
AUC(0-t) at 36 h listing for selected compounds.
Give the number; µg·h/mL is assumed, so skip it.

Known results for compounds:
q: Query AUC(0-t) at 36 h for `O=C(O)COc1nn(Cc2ccccc2)c2ccccc12`
a: 460

q: For the compound Cc1cccc(Nc2ccccc2C(=O)O)c1C [Mefenamate calcium, Calcium mefenamate] , give its reported AUC(0-t) at 36 h.
a: 470

q: Please indicate AUC(0-t) at 36 h recorded for `O=C(O)Cc1ccccc1Nc1c(Cl)cccc1Cl`
a: 465

Turning now to a further compound:
q: Name the recorded AUC(0-t) at 36 h of the compound listed here: O=C(O)c1ccccc1Nc1cccc(C(F)(F)F)c1 [Flufenamate calcium]
a: 463
